Tested on: NALM-6 cells
TEST_PROTOCOL: MTT cytotoxicity over 1-4 days versus arsenic trioxide, NALM-6
TEST_CONDITIONS: Homo sapiens, NALM-6, 72 h, read-out: Cytotoxicity against NALM-6 cells IC50, Day 3
OBSERVED_PROPERTY: IC50 (nM)
Just the number in nM, nothing appended.

Requested field: IC50. Item: CSc1nccc(Nc2ccccc2[As](=O)(O)O)n1
700

====

System: NALM-6
TEST_PROTOCOL: Anti-proliferative activity (colony counts), NALM-6
Assay type: cell-based, human
TEST_CONDITIONS: NALM-6, concentration 100 (mM as printed)
From the text: The dose-responsive anti-proliferative activity of various organic arsenic acid substituted compounds against leukemic cell lines (NALM-6 and MOLT-3) is shown below in Table 3. FIGS. 3A-3F show dose response curves in ALL1, NALM-6, and MOLT-3 cells.
Task for the reader: assign each of the following molecules its reported % Inhibition.
Just the number in %, nothing appended.

Report % Inhibition for CSc1nccc(Nc2ccc([As](=O)(O)O)cc2)n1 tested on NALM-6.
100

Report % Inhibition for CSc1nccc(Nc2ccc(N=Nc3ccc([As](=O)(O)O)cc3)cc2)n1 tested on NALM-6.
100

Report % Inhibition for COc1cc2ncnc(Nc3ccc(N=Nc4ccc([As](=O)(O)O)cc4)cc3)c2cc1OC tested on NALM-6.
100

Report % Inhibition for O=[As](O)(O)c1ccc(N=Nc2ccc(Nc3ncnc4[nH]cnc34)cc2)cc1 tested on NALM-6.
100

Report % Inhibition for CSc1nccc(Nc2ccccc2[As](=O)(O)O)n1 tested on NALM-6.
100
